FYI, the data here is from ChEMBL document CHEMBL1142320.

The molecules listed here are annotated with their half-life.
assay procedure: Half life in orally dosed rat
Format: ADME, organism-based
applied conditions: in vivo, po
Just the number in h, nothing appended.

Worked examples, 5 molecules total:
* COc1ccc(CNC(=O)c2ccc3ncn(Cc4ccc(C(=O)O)cc4)c(=O)c3c2)cc1 | 3.5
* O=C(O)c1ccc(Cn2cnc3ccc(C#CCn4ccnc4)cc3c2=O)cc1 | 0.9
* COc1cccc(CNC(=O)c2cc3c(=O)n(Cc4ccc(C(=O)O)cc4)cnc3cc2F)c1 | 2.1
* O=c1c2cc(C#CCc3ccccc3)ccc2ncn1Cc1cc(F)c(O)c(F)c1 | 0.7
* COc1ccc(CNC(=O)c2ccc3ncn(Cc4ccc(OC)cc4)c(=O)c3c2)cc1 | 1.4

INPUT: Item under review: COc1cccc(CNC(=O)c2cc3c(=O)n(Cc4ccc(C(=O)O)cc4)cnc3cn2)c1 . Reported half-life?
OUTPUT: 2.3

INPUT: Could you tell me which half-life is on file for COc1ccc(CNC(=O)c2cc3c(=O)n(Cc4ccc(C(=O)O)cc4)cnc3cn2)cc1 ?
OUTPUT: 3.9

INPUT: So what does the record say about half-life for O=C(O)c1ccc(Cn2cnc3ccc(C#CCc4ccccc4)cc3c2=O)cc1 ?
OUTPUT: 5.4
